// data source = ChEMBL document CHEMBL1149261

- experimentalTarget: Human immunodeficiency virus type 1 protease (Human immunodeficiency virus 1, UniProt Q72874)
- testProtocol: Inhibition of dimerization of HIV1 protease
pKi: −log10 of the molar value.
Classification field: true (1) = pKi at or over 6; false (0) = pKi under 6.

structureString: COC(=O)[C@@H](NC(=O)[C@H](CC(C)C)NC(=O)[C@@H](NC(=O)CCCOc1ccc2ccc(OCCCC(=O)N[C@@H](Cc3ccc(O)cc3)C(=O)N[C@@H](CCC(=O)OC(C)(C)C)C(=O)N[C@@H](CC(C)C)C(N)=O)nc2c1)C(C)C)C(C)C
assignedClass: true (1)
//
structureString: CC[C@@H](C)[C@H](NC(=O)[C@@H](NC(=O)CCCOc1ccc2ccc(OCCCC(=O)N[C@H](C(=O)N[C@H](C(=O)N[C@H](C(=O)OC)C(C)C)[C@H](C)CC)[C@@H](C)O)nc2c1)[C@@H](C)O)C(=O)N[C@H](C(=O)OC)C(C)C
assignedClass: false (0)
//
structureString: COC(=O)[C@@H](NC(=O)[C@H](CC(C)C)NC(=O)[C@@H](NC(=O)CCCOc1ccc2ccc(OCCCC(=O)N[C@H](C(=O)N[C@@H](CC(C)C)C(=O)N[C@H](C(=O)OC)C(C)C)C(C)C)nc2c1)C(C)C)C(C)C
assignedClass: true (1)
//
structureString: CC[C@H](C)[C@H](NC(=O)CCCOc1ccc2ccc(OCCCC(=O)N[C@H](C(=O)N[C@@H](CC(C)C)C(=O)N[C@H](C(=O)OC)C(C)C)C(C)C)cc2n1)C(=O)N[C@H](C(N)=O)[C@@H](C)O
assignedClass: true (1)
//
structureString: COC(=O)[C@H](CC(N)=O)NC(=O)[C@H](CC(C)C)NC(=O)[C@@H](NC(=O)CCCOc1ccc2ccc(OCCCC(=O)N[C@H](C(=O)N[C@@H](CC(C)C)C(=O)N[C@H](C(=O)OC)C(C)C)C(C)C)cc2n1)[C@@H](C)O
assignedClass: true (1)
//
structureString: COC(=O)[C@@H](NC(=O)[C@H](CC(C)C)NC(=O)[C@@H](NC(=O)CCCOc1ccc2ccc(OCCCC(=O)N[C@H](C(=O)N[C@@H](CC(C)C)C(=O)N[C@H](C(=O)OC)C(C)C)C(C)C)cc2c1)C(C)C)C(C)C
assignedClass: true (1)
//
structureString: CC[C@H](C)[C@H](NC(=O)[C@H](CCC(N)=O)NC(=O)CCCOc1ccc2ccc(OCCCC(=O)N[C@H](C(=O)N[C@@H](CC(C)C)C(=O)N[C@H](C(=O)OC)C(C)C)C(C)C)cc2c1)C(=O)N[C@H](C(N)=O)[C@@H](C)O
assignedClass: false (0)
